B1: FAM164C (parent)
chain: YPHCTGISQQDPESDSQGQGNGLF

Variants of: B1
Test: protein stability index of a GFP-peptide fusion (GPS, HEK-293T) (PSI 1-6); higher = more stable;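 also: lentivirally expressed fusions sorted by FACS into six bins by GFP to DsRed ratio, PSI derived from sequencing read proportions per bin multiplied by bin number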
Conditions: c terminus: a fixed tail appended
measured-quantity: protein stability index

[[record]]
mut = "S14A"
measured_number = 3.86

[[record]]
mut = "D15R"
measured_number = 3.54

[[record]]
mut = "Q9V"
measured_number = 3.19

[[record]]
mut = "G18F"
measured_number = 2.54

[[record]]
mut = "S14H"
measured_number = 3.73

[[record]]
mut = "P12R"
measured_number = 3.18

[[record]]
mut = "Q10K"
measured_number = 4

[[record]]
mut = "D15N"
measured_number = 3.84

[[record]]
mut = "Q9C"
measured_number = 3.43

[[record]]
mut = "F24Q"
measured_number = 5

[[record]]
mut = "Q9G"
measured_number = 3.85

[[record]]
mut = "N21F"
measured_number = 2.62

[[record]]
mut = "I7M"
measured_number = 3.38

[[record]]
mut = "G22M"
measured_number = 2.96

[[record]]
mut = "S16A"
measured_number = 3.71

[[record]]
mut = "T5Q"
measured_number = 3.89


The reported numbers originate from the supplement of paper PMC10567573.
